System: Cercospora arachidicola
assay text: Foliar fungal disease control, Cercospora arachidicola (peanut)
Assay type: in vivo
experimental setup: 100 ppm spray plus root drench (approximately 40 ppm a.i/dry soil), one or two days before inoculation
outcome measure: disease control, CERCOSPORA ARACHIDICOLA (PEANUT)

- molecule: "CC(C)(C)C(O)(C#CCCCCl)c1cncnc1 (centres unmarked)"
  system name: "Cercospora arachidicola"
  result: 4
- molecule: "CC(C)(C)/C=C/C(O)(c1cncnc1)C1(C)CC1 (centres unmarked)"
  system name: "Cercospora arachidicola"
  result: 4
- molecule: "CC(C)CC#CC(O)(c1cncnc1)C(C)(C)C (centres unmarked)"
  system name: "Cercospora arachidicola"
  result: 4

====

System: Rice
assay text: Intermediate Retardant Test, rice
Assay type: in vivo, Rice (Ishikari)
experimental setup: Oryza sativa, 672 h, 2000 ppm, overall spray, approximately 28 days, Table VI; read-out: Percentage Reduction in Height of Rice (Compared to formulation blank)
Class assignment keyed on Percent reduction in rice height vs formulation blank at 2000 ppm, ranges low = under 20%, mid = from 20% up to 50%, high = 50% and over

- compound: "CCC(C)C#CC(O)(c1cncnc1)C(C)C (centres unmarked)"
  class: "high"
- compound: "CC(C)CCCC(O)(c1cncnc1)C(C)C (centres unmarked)"
  class: "mid"
- compound: "CCCC#CC(O)(c1cncnc1)C(C)(C)C (centres unmarked)"
  class: "high"
- compound: "CC(C)C#CC(O)(c1cncnc1)C(C)(C)C (centres unmarked)"
  class: "low"
- compound: "CC(C)CC#CC(O)(c1cncnc1)C(C)(C)C (centres unmarked)"
  class: "high"
- compound: "CCCCC#CC(O)(c1cncnc1)C(C)C (centres unmarked)"
  class: "mid"
- compound: "CC(C)CCC#CC(O)(c1cncnc1)C(C)C (centres unmarked)"
  class: "low"
- compound: "CC(C)CCC(O)(c1cncnc1)C(C)C (centres unmarked)"
  class: "low"
- compound: "CC(C)CCCC(O)(c1cncnc1)C(C)(C)C (centres unmarked)"
  class: "low"
- compound: "CC(C)(C)C(O)(C#CCCCCl)c1cncnc1 (centres unmarked)"
  class: "mid"

====

Test system: Rice
assay text: Whole plant screen for plant growth regulator activity, rice (RC)
Type: in vivo, Rice (Ishikari)
experimental setup: 4000 ppm (4 kg/ha), visual score after 2-6 weeks
Listed below: G = Greening effect values for each entry.

- molecule: "CC(C)CCC(O)(c1cncnc1)C(C)(C)C (stereo not shown) [Compound 29]"
  G = Greening effect: "1 (10-30%)"
- molecule: "CC(C)CCCC(O)(c1cncnc1)C(C)(C)C (stereo not shown) [Compound 17]"
  G = Greening effect: "1 (10-30%)"
- molecule: "CCCC#CC(O)(c1cncnc1)C(C)C (stereo not shown) [Compound 2]"
  G = Greening effect: "2 (31-60%)"
- molecule: "CCCC#CC(O)(c1cncnc1)C(C)(C)C (stereo not shown) [Compound 14]"
  G = Greening effect: "2 (31-60%)"
- molecule: "CC(C)C(O)(C#CC(C)(C)C)c1cncnc1 (stereo not shown) [Compound 10]"
  G = Greening effect: "1 (10-30%)"
- molecule: "CC(C)CCCC(O)(c1cncnc1)C(C)C (stereo not shown) [Compound 7]"
  G = Greening effect: "1 (10-30%)"
- molecule: "CC(C)CC#CC(O)(c1cncnc1)C(C)(C)C (stereo not shown) [Compound 16]"
  G = Greening effect: "2 (31-60%)"
